Molecular target: T1, human LAG-3 expressed on cells (human, UniProt P18627 23-525)
T1 construct: whole, on cells; also called CD223
T1 sequence (looked up): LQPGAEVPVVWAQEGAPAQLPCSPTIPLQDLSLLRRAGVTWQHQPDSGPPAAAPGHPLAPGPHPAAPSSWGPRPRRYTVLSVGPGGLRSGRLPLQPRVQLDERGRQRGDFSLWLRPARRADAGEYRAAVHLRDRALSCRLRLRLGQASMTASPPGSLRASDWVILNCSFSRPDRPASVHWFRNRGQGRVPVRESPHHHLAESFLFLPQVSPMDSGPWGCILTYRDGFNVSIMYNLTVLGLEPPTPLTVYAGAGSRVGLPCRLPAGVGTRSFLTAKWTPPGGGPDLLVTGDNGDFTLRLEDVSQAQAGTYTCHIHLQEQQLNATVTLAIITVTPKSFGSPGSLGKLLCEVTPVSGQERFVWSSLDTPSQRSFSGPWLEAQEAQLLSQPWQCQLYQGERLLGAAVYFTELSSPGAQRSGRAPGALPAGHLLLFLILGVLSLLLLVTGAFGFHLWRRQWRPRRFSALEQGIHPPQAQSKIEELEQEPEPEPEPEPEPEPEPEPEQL
Assay: flow cytometry, 10 ug/ml antibody on SEA-activated primary human CD4+ T cells (FIG. 6A)
Assay endpoint: binding result

P13B02-26 (antibody, IgG1, V domains shown, Humanized; VH is H4_R98K; generated as full length IgG1; also called P13B02-26 (IgG1)) VH: QVQMKQSGAEVVKPGASVKVSCTASGFNIKDTYIHWVRQAPGQGLEWIGEIDPANDNTKYDPKFQGRVTITADTSSNTVYLQLSSLRSEDTAVYYCATYYYKYDVGGFDYWGQGTLVTVSS VL: EILLTQSPGTLSLSPGERATLTCSVSSSISSSNLHWFQQKPGQSPRLWIYGTSNLASGVPDRFSGSGSGTSYTLTISRLEPEDFAVYYCQQWSSYPFTFGQGTKVEIK = binds
P13B02-30 (IgG4) (antibody, V domains shown) VH: QVQMVQSGAEVKKPGASVKVSCKASGFNIKDTYIHWVRQAPGQGLEWMGEIDPANDNTKYDPKFQGRVTITADTSTSTVYMELSSLRSEDTAVYYCATYYYKYDVGGFDYWGQGTLVTVSS VL: EIVLTQSPGTLSLSPGERATLSCSVSSSISSSNLHWYQQKPGQAPRLLIYGTSNLASGIPDRFSGSGSGTDFTLTISRLEPEDFAVYYCQQWSSYPFTFGQGTKVEIK = binds
P13B02-07 (antibody, IgG1, V domains shown, Humanized; generated as full length IgG1; also called P13B02-07 (IgG1)) VH: QVQLVQSGAEVKKPGASVKVSCKASGFNIKDTYIHWVRQAPGQGLEWMGEIDPANDNTKYDPKFQGRVTITADTSTSTVYMELSSLRSEDTAVYYCATYYYRYDVGGFDYWGQGTLVTVSS VL: EIVLTQSPGTLSLSPGERATLSCSVSSSISSSNLHWYQQKPGQAPRLLIYGTSNLASGIPDRFSGSGSGTSYTLTISRLEPEDFAVYYCQQWSSYPFTFGQGTKVEIK = binds
